Data provenance is ChEMBL document CHEMBL1201862.

Test system: A498
experiment: NCI tumour cell line growth inhibition, 48 h
The source made the active and inactive calls. No stated cut-off is given here; in the data, active = GI50 up to about 1.1 µM and inactive = higher.
Record form. Attribute: GI50. Fill in for each entry.

INPUT: Item COC(=O)C1=C(C(=O)OC)C(C(=O)c2ccccc2)N2N=C(c3ccc(Cl)cc3)C=CC12 (stereo not given) has what recorded GI50?
OUTPUT: > 100 µM (inactive)

INPUT: Item O=C(Nc1ccc(Cl)cc1)c1cc(S(=O)(=O)Nc2nnc3c(Cl)cc(C(F)(F)F)cn23)c(S)cc1Cl has what recorded GI50?
OUTPUT: 28.7 µM (inactive)

INPUT: Item O=P(O)(CCP(=O)(O)c1ccccc1)c1ccccc1 has what recorded GI50?
OUTPUT: > 100 µM (inactive)

INPUT: Item CN(C)C(=O)Nc1cc2c3c(c1)CCCN3CCC2 has what recorded GI50?
OUTPUT: 4.57 µM (inactive)

INPUT: Item C=C1C(=O)O[C@H]2C/C(C)=C/CC/C(C)=C/CC[C@@](C)(O)[C@@H](I)C[C@@H]12 has what recorded GI50?
OUTPUT: 17.7 µM (inactive)

* * *

System: OVCAR-5
experiment: NCI tumour cell line growth inhibition, 48 h
Active and inactive are the calls of the source. Cut-off read from the data, not from the text of the source: active = GI50 up to about 1.1 µM and inactive = higher.
recorded metric: GI50

INPUT: Record lookup: for OVCAR-5, what GI50 belongs to CN(CCCNC(=O)c1cn(C)c2c1ccc1cc(Cl)ccc12)CCCNC(=O)c1cn(C)c2c1ccc1cc(Cl)ccc12 ?
OUTPUT: 3.09 µM (inactive)

INPUT: Record lookup: for OVCAR-5, what GI50 belongs to NCCCNC(=O)c1csc(NC(=O)c2csc(NC(=O)CCCN)n2)n1 ?
OUTPUT: > 100 µM (inactive)

INPUT: Record lookup: for OVCAR-5, what GI50 belongs to Fc1cc2nc3n(c2cc1F)C(c1c(F)cccc1F)SC3 (configuration not stated) ?
OUTPUT: 53.3 µM (inactive)

INPUT: Record lookup: for OVCAR-5, what GI50 belongs to Clc1ccc(-c2cn3c(nc4ccccc43)c(/C=C/c3ccco3)n2)cc1 ?
OUTPUT: > 100 µM (inactive)

INPUT: Record lookup: for OVCAR-5, what GI50 belongs to CC(C)(NO)/C(=N\O)c1ccco1 ?
OUTPUT: > 100 µM (inactive)

INPUT: Record lookup: for OVCAR-5, what GI50 belongs to O=S1(=O)COc2ccccc2-c2ncncc21 ?
OUTPUT: > 100 µM (inactive)

INPUT: Record lookup: for OVCAR-5, what GI50 belongs to O=C(CCc1cccc(O)c1)NCCc1ccc(O)cc1 ?
OUTPUT: > 100 µM (inactive)

INPUT: Record lookup: for OVCAR-5, what GI50 belongs to CCCC(=O)Nc1cc([N+](=O)[O-])c([N+](=O)[O-])cc1OC ?
OUTPUT: 32.5 µM (inactive)

INPUT: Record lookup: for OVCAR-5, what GI50 belongs to CCOC(=O)C1=C(OC(OCC)C(CC)[Se]c2ccccc2)CCCC1 (configuration not stated) ?
OUTPUT: 26.3 µM (inactive)

INPUT: Record lookup: for OVCAR-5, what GI50 belongs to COc1ccc(/C=N/NC(=O)C2=C(N)N(c3ccccc3)C(=C(C#N)C#N)S2)cc1 ?
OUTPUT: > 100 µM (inactive)

INPUT: Record lookup: for OVCAR-5, what GI50 belongs to C=C(C=O)CCCC(C)[C@@H]1CCC23CC12CCC1[C@@]2(C)CCC(OC(C)=O)C(C)(C)C2CC(OC2OC(COC(C)=O)C(O)C(O)C2O)[C@]13C (some centres not stated) ?
OUTPUT: 5.98 µM (inactive)

INPUT: Record lookup: for OVCAR-5, what GI50 belongs to O=c1c2ccccc2n2c(-c3ccccc3O)nnc2n1-c1ccccc1 ?
OUTPUT: > 100 µM (inactive)

INPUT: Record lookup: for OVCAR-5, what GI50 belongs to Nc1ncc(Cl)c(NCC2(CO)CC(CCc3ccccc3)C2)n1 (configuration not stated) ?
OUTPUT: > 100 µM (inactive)

INPUT: Record lookup: for OVCAR-5, what GI50 belongs to CC(C)(C)OC(=O)N1CC(C)(C)N2C(=O)C3(CCCO3)C12 (configuration not stated) ?
OUTPUT: > 100 µM (inactive)

INPUT: Record lookup: for OVCAR-5, what GI50 belongs to C/C(=C\COc1cc(O)c2c(c1)C(=O)c1cc(C)cc(O)c1C2=O)CCC1OC1(C)C (configuration not stated) ?
OUTPUT: > 100 µM (inactive)

INPUT: Record lookup: for OVCAR-5, what GI50 belongs to C=C1C(=O)OC2/C=C(\C)CC/C=C(\C)CC(OC(=O)/C(=C/CO)CO)[C@@H]12 (some centres not stated) ?
OUTPUT: 17.3 µM (inactive)

INPUT: Record lookup: for OVCAR-5, what GI50 belongs to COC(=O)C1Cc2c(n(Cc3ccccc3)c3ccccc23)C(CCC(=O)O)N1C(C)C (configuration not stated) ?
OUTPUT: > 100 µM (inactive)

INPUT: Record lookup: for OVCAR-5, what GI50 belongs to Cc1cc(=O)c2cc(/N=C/c3ccc([N+](=O)[O-])o3)ccc2o1 ?
OUTPUT: > 100 µM (inactive)

INPUT: Record lookup: for OVCAR-5, what GI50 belongs to CCOC(=O)CCC(NC(=O)c1ccc(CNc2nc3ccccc3nc2C(=O)OCC)cc1)C(=O)OCC (configuration not stated) ?
OUTPUT: > 100 µM (inactive)

INPUT: Record lookup: for OVCAR-5, what GI50 belongs to O=[N+]([O-])c1ccc2[nH]nc(OCc3ccccc3Cl)c2c1 ?
OUTPUT: 52.6 µM (inactive)

INPUT: Record lookup: for OVCAR-5, what GI50 belongs to O=C(Cc1ccccc1)N/N=C1\C(=O)Nc2ccccc21 ?
OUTPUT: > 100 µM (inactive)

INPUT: Record lookup: for OVCAR-5, what GI50 belongs to CC(Cn1c2c(c3cc(O)ccc31)CCc1ccc(O)cc1-2)N(C)C (configuration not stated) ?
OUTPUT: 19.3 µM (inactive)

INPUT: Record lookup: for OVCAR-5, what GI50 belongs to CC(=O)C(C(c1ccccc1)N1CCOCC1)N1CCOCC1 (configuration not stated) ?
OUTPUT: > 100 µM (inactive)

INPUT: Record lookup: for OVCAR-5, what GI50 belongs to O=C(O)C1C2c3ccccc3C(c3ccccc32)C1C(=O)NCC1CC1 (configuration not stated) ?
OUTPUT: > 100 µM (inactive)

INPUT: Record lookup: for OVCAR-5, what GI50 belongs to CC(C)N1CCC2(CC1)NNc1ncccc1-n1cccc12 ?
OUTPUT: > 100 µM (inactive)

INPUT: Record lookup: for OVCAR-5, what GI50 belongs to CCOC(OC1=CCCC1)C(C)[Se]c1ccccc1 (configuration not stated) ?
OUTPUT: 28.9 µM (inactive)

INPUT: Record lookup: for OVCAR-5, what GI50 belongs to O=C(O)CSSCC(=O)O ?
OUTPUT: > 100 µM (inactive)

* * *

Test system: TK-10
experiment: NCI tumour cell line growth inhibition, 48 h
The source made the active and inactive calls. Cut-off read from the data, not from the text of the source: active = GI50 up to about 1.1 µM and inactive = higher.
recorded metric: GI50

INPUT: Item C=C1C(=O)O[C@H]2C/C(C)=C/CC/C(C)=C/CC[C@@](C)(O)[C@@H](I)C[C@@H]12 has what recorded GI50?
OUTPUT: 11.5 µM (inactive)

INPUT: Item COC(=O)[C@@]12C(=O)C(C)C(=O)[C@]1(C)C(C)=C[C@H]1[C@]3(C=O)CC[C@H](OC(C)=O)C(C)(C)[C@H]3CC[C@@]12C (stereo partly drawn) has what recorded GI50?
OUTPUT: > 100 µM (inactive)

INPUT: Item CC(C)[C@@H](C)[C@@]1(C)C[C@@H]1[C@@H](C)[C@H]1CC[C@@H]([C@@H]2CC=C3C[C@@H](O)CC[C@]3(C)C2=O)[C@]1(C)CCO has what recorded GI50?
OUTPUT: 11.5 µM (inactive)

INPUT: Item O=C(O)CCSCc1ccc(I)cc1 has what recorded GI50?
OUTPUT: > 100 µM (inactive)

INPUT: Item O=C(CC(C(=O)c1cccs1)c1ccsc1)c1cccs1 (stereo not drawn) has what recorded GI50?
OUTPUT: > 100 µM (inactive)

INPUT: Item CCOC(OC1=CCCC1)C(C)[Se]c1ccccc1 (stereo not drawn) has what recorded GI50?
OUTPUT: > 100 µM (inactive)

INPUT: Item O=C(CCCNc1nc(-c2ccccc2)cs1)c1cccs1 has what recorded GI50?
OUTPUT: > 100 µM (inactive)

INPUT: Item O=C1/C(=c2\s/c(=C\c3ccccc3)c(=O)n2-c2ccccc2)SC(=S)N1c1ccccc1 has what recorded GI50?
OUTPUT: 28.9 µM (inactive)

INPUT: Item Cc1cc(C)c2c(c1)CC1(Cc3cc(C)c(C)cc3C1=O)C2=O (stereo not drawn) has what recorded GI50?
OUTPUT: > 100 µM (inactive)

INPUT: Item CCCCCCNc1n[nH]c(=O)c2c1nnn2Cc1ccccc1 has what recorded GI50?
OUTPUT: > 100 µM (inactive)

INPUT: Item CCCCCCCC[N+](C)(C)Cc1ccc(C[N+](C)(C)CCCCCCCC)cc1 has what recorded GI50?
OUTPUT: 86.9 µM (inactive)

INPUT: Item O=c1[nH]c(=O)n(COCCO)cc1-c1ccccc1 has what recorded GI50?
OUTPUT: > 100 µM (inactive)

INPUT: Item Cc1nc(C(N)=S)sc1C(=O)CC(=O)C(=O)Nc1c(C(C)C)cccc1C(C)C has what recorded GI50?
OUTPUT: > 100 µM (inactive)

INPUT: Item COC(=O)C1=C(C(=O)OC)C(C(=O)c2ccccc2)N2N=C(c3ccc(Cl)cc3)C=CC12 (stereo not drawn) has what recorded GI50?
OUTPUT: 2.85 µM (inactive)

INPUT: Item COc1ccc2c3c([nH]c2c1[N+](=O)[O-])C(C)N(Cc1ccc([N+](=O)[O-])cc1)CC3 (stereo not drawn) has what recorded GI50?
OUTPUT: 29.6 µM (inactive)

INPUT: Item O=C(CSCC(=O)N/N=C/c1cccc(O)c1)N/N=C/c1cccc(O)c1 has what recorded GI50?
OUTPUT: > 100 µM (inactive)

INPUT: Item COC(Cc1cc(C(O)(c2ccc(C(C)(C)C)cc2)c2cc(CC(OC)(c3cc(C(OC)(c4ccc(C(C)(C)C)cc4)c4ccc(C(C)(C)C)cc4)c(C)cc3C)c3cc(C(OC)(c4ccc(C(C)(C)C)cc4)c4ccc(C(C)(C)C)cc4)c(C)cc3C)c(C)cc2C)c(C)cc1C)(c1cc(C(OC)(c2ccc(C(C)(C)C)cc2)c2ccc(C(C)(C)C)cc2)c(C)cc1C)c1cc(C(OC)(c2ccc(C(C)(C)C)cc2)c2ccc(C(C)(C)C)cc2)c(C)cc1C has what recorded GI50?
OUTPUT: > 75 µM (inactive)

INPUT: Item CC(C)(C)OC(=O)N1CC(C)(C)N2C(=O)C3(CCCO3)C12 (stereo not drawn) has what recorded GI50?
OUTPUT: > 100 µM (inactive)

INPUT: Item C/C(=C\COc1cc(O)c2c(c1)C(=O)c1cc(C)cc(O)c1C2=O)CCC1OC1(C)C (stereo not drawn) has what recorded GI50?
OUTPUT: 40.3 µM (inactive)

INPUT: Item C/C=C/C(CC(O)(C(F)(F)F)C(F)(F)F)=N/NC(N)=S has what recorded GI50?
OUTPUT: > 10 µM (inactive)

INPUT: Item CC(C)(/N=N/C(C)(C)C1=NCCN1)C1=NCCN1 has what recorded GI50?
OUTPUT: > 100 µM (inactive)

INPUT: Item COC(=O)[C@@H]1C(=O)O[C@@H](c2ccc(OC)c(OC)c2OC)[C@@H]1C(=O)OC.COC(=O)[C@H]1C(=O)O[C@@H](c2ccc(OC)c(OC)c2OC)[C@@H]1C(=O)OC has what recorded GI50?
OUTPUT: > 100 µM (inactive)

INPUT: Item CC1(C)CCC[C@]2(C)[C@H]3[C@H](C#N)c4cc(O)c(O)cc4O[C@@]3(C)CC[C@@H]12 has what recorded GI50?
OUTPUT: > 10 µM (inactive)
